Molecular target: T1, glucose-dependent insulinotropic peptide (gastric inhibitory polypeptide) receptor (GIPR) (human, UniProt P48546 22-466)
T1 sequence (looked up): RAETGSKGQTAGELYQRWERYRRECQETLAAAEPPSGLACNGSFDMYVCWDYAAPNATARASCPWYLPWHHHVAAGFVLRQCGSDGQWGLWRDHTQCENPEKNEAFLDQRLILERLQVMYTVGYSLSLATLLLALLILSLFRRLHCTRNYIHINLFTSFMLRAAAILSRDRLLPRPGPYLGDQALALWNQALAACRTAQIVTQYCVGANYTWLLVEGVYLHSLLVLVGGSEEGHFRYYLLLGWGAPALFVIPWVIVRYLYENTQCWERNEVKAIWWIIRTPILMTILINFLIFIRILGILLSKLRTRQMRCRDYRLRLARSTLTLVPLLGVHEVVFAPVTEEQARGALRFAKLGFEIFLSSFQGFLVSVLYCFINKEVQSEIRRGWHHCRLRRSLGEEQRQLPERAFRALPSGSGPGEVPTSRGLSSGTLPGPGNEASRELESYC
Experiment: cell-based or functional assay
Starred links: 1 amine or outer side, 2 acyl side, 3 side chain; linkers in the order of their positions; H or OH if unused. Non-standard residues stand in square brackets, D forms with d. Groups on a side chain read outwards from the residue. Primed or numbered codes have the meaning given here. No end group written: not given here. *: point of attachment. γGlu = O=C(O)[C@H](CCC(=O)[*:2])N[*:1]; Stearoyl = CCCCCCCCCCCCCCCCCC(=O)*; αMeF = C[C@](N)(Cc1ccccc1)C(=O)O; αMeK = C[C@](N)(CCCCN)C(=O)O; Lauroyl = CCCCCCCCCCCC(=O)*; αMeS = C[C@](N)(CO)C(=O)O; PEG2′ = not defined here; Aib = CC(C)(N)C(=O)O
property_name: cAMP Primary assay EC50 GIP-R (2nd) (nM)

H[Aib]EGS[αMeF]TSDV[αMeS]S[αMeF]LEGEAAK([PEG2′-PEG2′-PEG2′-Lauroyl])E[αMeF]IA[αMeF]VV[αMeK]GG-NH2 [SEQ ID NO 136] :: 26
H[Aib]EGS[αMeF]K([PEG2′-PEG2′-γGlu-Stearoyl])SDV[αMeS]S[αMeF]LEGEAA[αMeK]E[αMeF]IA[αMeF]VV[αMeK]GG-NH2 [SEQ ID NO 122] :: 25.2
